Cited source: patent US6514942B1

- System: CTL-34
- Method summary: Recognition of HER-2 peptides by ovarian tumor associated CTL (lysis of peptide-sensitized targets)
- Assay type: cell-based, human
Exercise: state measured % of C85 (target lysis by CTL in the presence of peptide as % of positive control C85) for each of the sequences provided.

Reference set, count: 4
CLTSTVQLV [Peptide E90, HER-2:788-796] :: 1.149 % of C85
QLMPYGCLL [Peptide E71, HER-2:798-806] :: 0.600 % of C85
PLQPEQLQV [Peptide E77, HER-2:391-399] :: 0.300 % of C85
ELVSEFSRM [Peptide C85, natural nonapeptide HER-2:971-979] :: 1.000 % of C85

Now let's try a different one.
For the sequence VLVKSPNHV [Peptide E89, HER-2:851-859] , what % of C85 (target lysis by CTL in the presence of peptide as % of positive control C85) is on record?
1.149 % of C85

---

- Test system: C1R:A2 cells
- Method summary: Ag specificity of the 41.CD8+ CTL line on peptide-pulsed targets
- Assay type: cell-based, human
- Reported conditions: peptide-pulsed C1R:A2, E:T 10:1
Measured metric: recognition by 41.CD8+ CTL line

ELVSEFSRV [Peptide C84, HER-2:971-979 analog, Met(P9) substituted by Val] :: recognized
RFRELVSEFSRMAR [Peptide C43, HER-2:968-981 14mer peptide] :: recognized
SLADPAHGV [Peptide D132, control analog of Muc-1 core peptide with introduced P2 anchor, reference compound] :: at a much lesser extent
GLTSAPDTRV [Peptide D125, control analog of Muc-1 core peptide (Muc-1:8-17) with introduced HLA-A2 anchors, reference compound] :: at a much lesser extent
